src = ChEMBL document CHEMBL4513216

Kindly supply the reported INHIBITION values for the records listed here.
System: Plasmodium berghei
experimentDescription: Screen against P. berghei liver stage (PbLuc), transformed with Luciferase, at 10uM
Assay type: functional, HepG2
testSettings: tested at 10 uM
Hit rate of the full screen: of about 69,000 compounds, about 8,600 (12%) showed an effect of 50% or more. The entries come from a sample that favours strong results as a whole.
One number for each entry, in %.

compound: Cc1cc2nc(C(C)C)cc(N3CCC(O)CC3)n2n1
targetDesc: Plasmodium berghei
result: 11.3
--
compound: COCC(=O)N1CCC2(CC1)CN(S(C)(=O)=O)Cc1ccccc1O2
targetDesc: Plasmodium berghei
result: 14.94
--
compound: COCCCN1CCN(CC2CCCO2)CC1 (stereo not given)
targetDesc: Plasmodium berghei
result: 17.5
--
compound: O=C(O)c1cncc(Cc2cccc(F)c2)c1
targetDesc: Plasmodium berghei
result: -19.7
--
compound: CN(C)C1CCN(c2cc(-c3ccccc3)nc3ccnn23)C1 (stereo not given)
targetDesc: Plasmodium berghei
result: 74.9

For every record below, what is its INHIBITION?
1. COC1CCN(c2cc(C(C)C)nc3ccnn23)C1 (stereo not given)
2. CC(O)(CNc1ccc(Cl)c(C#N)n1)c1ccsc1 (stereo not given)
3. Cc1nc(CN2CCCC2c2c(C)nn(C)c2Cl)oc1C (stereo not given)
4. COCC(=O)NCC1CCC(c2ccnc3ncnn23)CC1 (stereo not given)
5. Cc1nc(C)n(CC2CCCN(CC(=O)NC3CCOCC3)C2)n1 (stereo not given)
6. Cc1cc(C(=O)NCc2ccnc(N3CCOCC3)c2)c(C)s1

1: 7.6; 2: -20.3; 3: 18.2; 4: 15.5; 5: -17; 6: 4.65

For every record below, what is its INHIBITION?
1. Cc1ccc(Cn2ccc(NS(C)(=O)=O)n2)cc1
2. CS(=O)(=O)Nc1ccn(Cc2ccc(Br)cc2)n1
3. Cc1cc2nc(C(C)C)cc(N3CCC(N(C)C)C3)n2n1 (stereo not given)
4. CC(C)c1cc(N2CCC(N(C)C)C2)n2nccc2n1 (stereo not given)
5. Cc1cccc(C)c1OCCCN1CCN(CC2CCCO2)CC1 (stereo not given)
6. Cc1cnn(CC2CN(Cc3nc(-c4ccsc4)no3)CCO2)c1 (stereo not given)
7. O=C(NCc1cc(N2CCOCC2)ncn1)c1cccc(CO)n1

[-36.5, 49.9, 17.7, 53.9, 67.1, 49.75, 71.1]

For every record below, what is its INHIBITION?
1. CCc1ccccc1NC(=O)CCc1cnn(C)c1
2. Cc1cc(N2CCCC(N(C)C)C2)n2nc(C)cc2n1 (stereo not given)
3. CCc1nc(C2CCCN2C(=O)c2cnns2)no1 (stereo not given)
4. Cc1nn(C)c(Cl)c1C1CCCN1C(=O)c1cnccn1 (stereo not given)
5. COCCCC1CCCN(Cc2c(C)ccc3ncccc23)C1 (stereo not given)
6. Nc1nc2c(c3c1C(=O)NC3=O)CCC2
7. CC(C)c1cc(N2CCC[C@H](N)C2)n2nccc2n1

[34.2, -1.16, 29.765, 25.1, 5.41, 41.9, 13]

For every record below, what is its INHIBITION?
1. NC(=O)c1cnn2c(C3CCN(CCO)CC3)ccnc12
2. Cc1cc2nc(SCC(=O)N3CCOCC3)n(CCC(C)C)c(=O)c2[nH]1
3. COc1cc(C#N)ccc1OCC(=O)NS(=O)(=O)c1ccccc1
4. C1CC(CN2C[C@@H]3CC[C@H]2CN(Cc2nnc(C4CC4)o2)C3)C1
5. Cc1occc1C(=O)N1CCC2(CCCN(Cc3cccs3)C2)C1 (stereo not given)
6. Cc1cccc(C)c1OCCCN1CCC(n2cncn2)CC1
7. Nc1nc2c(c3c1C(=O)NC3=O)CCCC2

[14.55, 45.8, 50.6, 27.5, -60.9, -49.5, 70.7]

For every record below, what is its INHIBITION?
1. CN(Cc1noc2c1CCCC2)C(=O)Nc1ccc2oc(=O)n(C)c2c1
2. COc1cccc(C(C(=O)O)N2CCC(Cn3cccn3)CC2)c1OC (stereo not given)
3. Cc1ccc(C(=O)N(C)Cc2nccn2CC(F)(F)F)cn1
4. O=C1NC(=O)c2c3c(nc(O)c21)CCCC3

1. 36.4
2. 19.8
3. -16.8
4. 29.3

For every record below, what is its INHIBITION?
1. O=S(=O)(N1CCCC1)N1CCN(CC2CCCO2)CC1 (stereo not given)
2. CC(NCCCC#N)c1ccc(S(C)(=O)=O)c(F)c1 (stereo not given)
3. CCn1cc(N)c(-c2nnc3n2CCCC3)n1
4. CN(C)C(=O)COCc1cncc2c1CCN(Cc1ccccc1)C2
5. Cc1nc(C(C)NC(=O)c2cn(CCC3CCCCC3)nn2)n[nH]1 (stereo not given)
6. Cc1cc(N2CCCC(N(C)C)C2)n2nccc2n1 (stereo not given)
7. CC(C)c1cc(N2CCC(C(C)N3CCCC3)CC2)n2nccc2n1 (stereo not given)

1. 33.4
2. 19.1
3. 21.9
4. -45.5
5. 5.75
6. 55.4
7. 73

For every record below, what is its INHIBITION?
1. COc1ccccc1CC(=O)NS(=O)(=O)c1ccc(C#N)cc1
2. O=C(CC1CC1)N1CCC2(CCCN(CCOc3ccccc3)C2)C1 (stereo not given)

15.6
27.2

For every record below, what is its INHIBITION?
1. O=C(c1cnc(-c2ccccn2)s1)N1CCCC1Cn1cccn1 (stereo not given)
2. COCCN1CCC(CN(CC2CCCO2)C(=O)COC)CC1 (stereo not given)
3. CN(CCO)C1CCN(c2ncc3c(n2)CCN3c2ccccc2)CC1

-9.19
26.8
22.3

For every record below, what is its INHIBITION?
1. Cc1cc(N(C)C)nc(C2COCCN2Cc2cscn2)n1 (stereo not given)
2. Cn1cc(CN2CCc3c(nnn3C)C2COCc2ccccc2)cn1 (stereo not given)

1: 45.9; 2: -90.3

====

Kindly supply the reported INHIBITION values for the records listed here.
Test system: Plasmodium berghei
experimentDescription: Screen against P. berghei liver stage (PbLuc), transformed with Luciferase, at 10uM
Format: functional, HepG2
testSettings: tested at 10 uM
The whole screen tested about 69,000 compounds, of which about 8,600 (12%) showed an effect of 50% or more. The list comes from a sample in which strong results are over-represented; it also holds close analogues and randomly drawn compounds.
Numbers only, in %.

Solved entries:
molecule: COc1c(C)cnc(CN2CCCC2Cn2nc(C)nc2C)c1C (stereo not given)
result: 27.6
--
molecule: NC(=O)c1csc(C(=O)N2CCCCC2Cn2cccn2)c1 (stereo not given)
result: 17.8
--
molecule: CCc1nc(CC(=O)N2CCCC2Cn2cccn2)cs1 (stereo not given)
result: 2.61

For every record below, what is its INHIBITION?
1. c1nc(N2CCOC(Cn3cncn3)C2)c2cc[nH]c2n1 (stereo not given)
2. CCc1nc(N2CCOCC2)ncc1C(=O)NC(c1cccs1)C(C)C (stereo not given)
3. Cc1nccn1CCC(=O)N1CCCN(c2ccccc2)CC1
4. Cc1cc(C2CCCN2C(=O)c2csc(-c3cnn(C)c3)n2)on1 (stereo not given)
5. Cc1nn(C)c(N(C)C)c1CNC(C)COc1ccc(F)cc1 (stereo not given)

1: 33.8; 2: 29.5; 3: 28.7; 4: -1.445; 5: -59.4

For every record below, what is its INHIBITION?
1. CN(c1cccnn1)[C@@H]1CC[C@@H]2CN(Cc3cccc(C(=O)O)c3)C[C@@H]21
2. NC(=O)c1ccc(C(=O)N2CCCCC2Cn2cccn2)s1 (stereo not given)
3. CCc1ncc(C(=O)N2CCCCC2Cn2cccn2)s1 (stereo not given)
4. COc1c(C)cnc(CN2CCCCC2Cn2nc(C)nc2C)c1C (stereo not given)
5. CC(=O)N1CCC2(CC1)CN(C)CC[C@H]2C(F)(F)F
6. CC(=O)N1CCCN(CCCc2ccccc2)CC1

1. 30.6
2. 53.9
3. 33.6
4. 6.14
5. -22.1
6. 15.2

For every record below, what is its INHIBITION?
1. Cc1nccn1CCC(=O)N1CCCN(CCCc2ccccc2)CC1
2. Cc1ccccc1N1CCCN(C(=O)CCc2nncn2C)CC1
3. O=C(c1cc2cc(F)ccc2[nH]1)N1CCCCC1Cn1cccn1 (stereo not given)
4. CCN(CC)c1ncnc2c(C)nn(CC)c12
5. CC(C)c1sc(Cl)nc1C(=O)N1CCN(c2ccccc2)CC1
6. CCN(CC)CC(=O)N1CCCC1Cn1cccn1 (stereo not given)
7. CCc1nc(CC(=O)N2CCCCC2Cn2cccn2)cs1 (stereo not given)

1. 51.5
2. 49.3
3. -12.2
4. 35.4
5. -1.23
6. 21.5
7. 62.6

For every record below, what is its INHIBITION?
1. CS(=O)(=O)N1CCC(NC(=O)COc2ccccc2Cl)CC1
2. COc1c(C2CCCN2C(=O)c2nccnc2N)c(C)nn1C (stereo not given)
3. Cc1cc2c(=O)n3c(nc2s1)CCN(C(=O)c1cn(C)nc1C)CC3
4. Cc1ccccc1N1CCCN(C(=O)CCc2ccncc2)CC1

[-19.9, 14.1, 14.7, 26.9]
